B1: library; numbered along this chain (parent)
chain: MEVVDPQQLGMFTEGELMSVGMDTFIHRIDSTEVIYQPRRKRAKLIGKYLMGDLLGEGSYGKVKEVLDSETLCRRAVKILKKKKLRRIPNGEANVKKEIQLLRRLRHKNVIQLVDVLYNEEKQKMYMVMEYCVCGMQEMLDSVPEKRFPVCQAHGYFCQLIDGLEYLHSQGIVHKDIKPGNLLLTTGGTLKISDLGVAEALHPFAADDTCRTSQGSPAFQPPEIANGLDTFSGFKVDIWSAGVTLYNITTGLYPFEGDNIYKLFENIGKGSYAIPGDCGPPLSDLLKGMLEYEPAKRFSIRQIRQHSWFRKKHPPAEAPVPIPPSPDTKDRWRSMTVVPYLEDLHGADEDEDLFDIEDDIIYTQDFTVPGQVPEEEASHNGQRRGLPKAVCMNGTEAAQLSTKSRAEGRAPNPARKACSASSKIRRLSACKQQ

# Variants of: B1
# PROTOCOL TEXT: STK11 functional score (HeLa growth suppression), rescaled enrichment; synonymous median = 1, nonsense median = 0 (normalised score)
# CONDITIONS USED: with HeLa; variant type: missense
QUANTITY: STK11 functional score
Field format: numeric only.

Would you please look over these solved cases?
V143C
1.26
E357H
1.6
R104F
1.19
E138L
1.15
K403S
0.892

Documented STK11 functional score of L72A : 0.81

Documented STK11 functional score of K146D : 0.483

Documented STK11 functional score of A397P : 1.18

Documented STK11 functional score of A43Y : 1.67

Documented STK11 functional score of C151E : 0.756

Documented STK11 functional score of R384Q : 1.62

Documented STK11 functional score of S283T : 1.47

Documented STK11 functional score of K96Y : 1.23
